FYI, the data here is from patent US20080026996A1.

# study target: T1, human VPAC2 receptor (human, UniProt P41587 24-438)
# T1 sequence (looked up): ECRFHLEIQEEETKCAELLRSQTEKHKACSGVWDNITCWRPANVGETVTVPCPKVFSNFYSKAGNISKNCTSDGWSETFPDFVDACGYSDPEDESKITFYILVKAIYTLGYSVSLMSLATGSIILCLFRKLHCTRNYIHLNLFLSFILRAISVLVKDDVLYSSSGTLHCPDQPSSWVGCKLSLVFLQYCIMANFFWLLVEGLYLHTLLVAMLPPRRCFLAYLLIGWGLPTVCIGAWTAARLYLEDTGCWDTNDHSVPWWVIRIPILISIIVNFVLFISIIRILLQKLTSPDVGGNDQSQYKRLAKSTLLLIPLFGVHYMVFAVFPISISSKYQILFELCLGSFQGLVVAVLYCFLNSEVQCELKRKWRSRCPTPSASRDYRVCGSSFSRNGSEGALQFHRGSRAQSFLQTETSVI
# experiment: cell-based or functional assay
Where no end group is shown, it is not given here. [ ]: non-standard residue; d: D form. The star is where a group is joined. Hexanoyl = CCCCCC(=O)*; Aib = CC(C)(N)C(=O)O
Form field: EC50 cAMP, Alpha Screen (one value per entry).
Reply with just the number (in nM).

Hexanoyl-HSDAVFTDNYTRLLKQVAAKKYLQSIKNKRYGGPSSGAPPPS [P174]; 0.26
HSDAVFTDNYTRLRKQVAASKYLQSIKNKRYGGPSSGAPPPS [P21]; 11.6

q: Given the entry Ac-HSDAVFTDNYTRLRKQVAAKKYLQSIKNKRYGGPSSGAPPPS [P33] , report its measured EC50 cAMP, Alpha Screen.
a: 0.73

q: Name the recorded EC50 cAMP, Alpha Screen for Hexanoyl-HSDAVFTDNYTRLRKQVAAKKYLQ[Aib]IKNKRYGGPSSGAPPPS (ends and bridges not checked) [P187] .
a: 0.4

q: Entry Hexanoyl-HSDAVFTDNYTRLRKQVAAKKYLQWIKNKRYGGPSSGAPPPS [P117] : reported EC50 cAMP, Alpha Screen = ?
a: 0.2

q: What value of measured EC50 cAMP, Alpha Screen is listed for Hexanoyl-HSDAVFTDNYTRLRKQVAAKKYAQSIKNKRYGGPSSGAPPPS [P235] ?
a: 0.82
